Reference source for all entries: patent US20080194574A1

- assay_target: viral kinase pUL-97 (Human cytomegalovirus, UniProt P16788)
- Construct: The pUL-97 gene was cloned into a baculovirus vector; GST (glutathione S-transferase) (N); made in house; host or cells: Sf9 insect cells, baculovirus
- Sequence (P16788 whole entry): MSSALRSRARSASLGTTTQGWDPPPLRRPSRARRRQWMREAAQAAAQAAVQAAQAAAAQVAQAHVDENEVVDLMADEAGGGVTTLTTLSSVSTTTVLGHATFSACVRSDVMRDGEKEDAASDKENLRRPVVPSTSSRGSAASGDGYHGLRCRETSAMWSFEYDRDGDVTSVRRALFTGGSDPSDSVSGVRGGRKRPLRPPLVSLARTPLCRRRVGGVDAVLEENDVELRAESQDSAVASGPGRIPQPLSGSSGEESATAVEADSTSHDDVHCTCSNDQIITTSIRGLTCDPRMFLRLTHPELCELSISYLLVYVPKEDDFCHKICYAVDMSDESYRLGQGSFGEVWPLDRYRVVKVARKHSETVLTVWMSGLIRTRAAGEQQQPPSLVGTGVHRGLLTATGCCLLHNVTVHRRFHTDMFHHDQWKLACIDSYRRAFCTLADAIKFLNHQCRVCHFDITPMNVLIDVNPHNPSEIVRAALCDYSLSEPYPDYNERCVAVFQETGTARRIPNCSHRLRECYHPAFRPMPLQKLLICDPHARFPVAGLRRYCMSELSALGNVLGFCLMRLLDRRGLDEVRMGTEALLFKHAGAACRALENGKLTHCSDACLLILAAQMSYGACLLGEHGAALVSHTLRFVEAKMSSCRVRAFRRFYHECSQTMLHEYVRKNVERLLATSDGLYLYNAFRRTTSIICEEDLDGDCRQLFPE
- test_protocol: UL97 kinase assay on Immobilon plate
- Format: biochemical
- study_conditions: inhibition of UL 97 kinase activity; class by IC50 / % inhibition at 10 μM or 100 μM; read-out: Activity Class [A, B, C]
pIC50: −log10 of the molar value.
pIC50 values by entry
reported_endpoint: pIC50

1. CC(=O)c1ccc(-c2cncc(N3CCN(c4ccc(F)cc4F)CC3)n2)cc1
5.00 to 6.00
2. COc1ccc(-c2cncc(N3CCC(c4ccccc4)CC3)n2)cc1OC
5.00 to 6.00
3. COc1ccc(N2CCN(c3cncc(-c4ccc(C(F)(F)F)cc4)n3)CC2)cc1
5.00 to 6.00
4. COc1ccc(N2CCN(c3cncc(-c4csc5ccccc45)n3)CC2)cc1
5.00 to 6.00
5. Clc1cccc(N2CCN(c3cncc(-c4csc5ccccc45)n3)CC2)c1
4.00 to 5.00
6. Cc1cc(C)cc(-c2cncc(N3CCN(c4cccc(C)c4)C(C)C3)n2)c1 (stereo not shown)
4.00 to 5.00
7. Fc1ccc(N2CCN(c3cncc(-c4ccoc4)n3)CC2)cc1
4.00 to 5.00
8. COc1ccc(N2CCN(c3cncc(-c4ccsc4)n3)CC2)cc1OC
5.00 to 6.00
9. Cc1ccc(N2CCN(c3cncc(-c4ccc5ccccc5c4)n3)CC2)c(C)c1
4.00 to 5.00
10. COc1ccc(OC)c(-c2cncc(N3CCN(c4ccc(OC)c(OC)c4)CC3)n2)c1
4.00 to 5.00
11. Cc1nc(C)c(N2CCN(c3ccncc3)CC2)nc1-c1cc2ccccc2s1
4.00 to 5.00
12. CC(=O)c1ccc(N2CCN(c3cncc(-c4ccc(F)cc4)n3)CC2)cc1
5.00 to 6.00
13. COc1ccc(N2CCN(c3cncc(-c4cc5ccccc5o4)n3)CC2)cc1
5.00 to 6.00
